The measured values listed here are drawn from ChEMBL document CHEMBL1156829.

- PROCEDURE_SUMMARY: NOVARTIS: Inhibition Frequency Index (IFI) - the number of HTS assays where a compound showed > 50% inhibition/induction, expressed as a percentage of the number of assays in which the compound was tested.
- Type: functional
The full ranking holds about 5,400 compounds; the median of “IFI” is about 2, and the highest 2% start at about 22. The list comes from a sample in which the highest values are over-represented; it also holds close analogues and randomly drawn compounds.
MEASUREMENT_KIND: IFI

MOLECULE	IFI
O=C(COc1ccccc1Cl)OCc1cc(=O)n2nc(C3CC3)sc2n1	0%
CCCc1c(C)nc2ccc(Br)cc2c1O	3.03%
CCC(=O)CC(O)C[C@@H](C)C[C@H](NC(=O)[C@@H]1C[C@H](C)CN1C(=O)/C=C/[C@@H](C)CC)C(=O)N[C@H](C(=O)NC(C)(C)C(=O)N[C@@H](CC(C)C)C(=O)N[C@@H](CC(C)C)C(=O)NC(C)(C)C(=O)NC(C)(C)C(=O)NCCC(=O)N[C@@H](C)CN(C)C)[C@H](O)C(C)C (stereo partly specified)	12.1%

Q. Return reported IFI; argument: CO[C@H]1C[C@H](C)Cc2cc(O)cc(c2)NC(=O)C(C)=CCC[C@H](OC)[C@@H](OC(N)=O)C(C)=CC(C)[C@H]1O (stereo partly specified)
A. 9.62%

Q. Return reported IFI; argument: CC[C@@H](C(=O)[C@@H](C)C(O)[C@H](C)CCc1ccc(C)c(O)c1C(=O)O)C1O[C@](CC)(C2CC[C@](O)(CC)[C@H](C)O2)C[C@@H]1C (stereo partly specified)
A. 9.84%

Q. Return reported IFI; argument: CC[C@@H](C(=O)[C@@H](C)[C@@H](O)[C@H](C)CCc1ccc(C)c(O)c1C(=O)O)[C@H]1O[C@](CC)([C@H]2CC[C@](O)(CC)[C@@H](C)O2)C[C@@H]1C
A. 26.9%
